System: HL-60(TB) leukemia
Test: NCI-60 one-dose screen, 48 h (100 = growth as untreated, 0 = no growth, -100 = all killed)
Conditions: 10 µM unless noted
The panel holds about 83,000 compounds, 20% with a hit somewhere; the sample as a whole holds those more often.
The compounds listed here are annotated with their growth.
Please reply with the bare figure in % and do not write the unit itself.

Look over these answered cases.
1) CC[C@H](C)[C@@H]1OC(=O)C(C)(C)[C@H](O)[C@H](Cc2ccccc2)OC(=O)[C@H](C(C)C)OC(=O)[C@@H](NC(=O)c2cccc(NC=O)c2O)[C@@H](C)OC1=O; 60
2) C[C@@H]1C[C@@]2(C)[C@@H](CC[C@@H]3[C@@H]2CC[C@]2(C)C(=O)CC[C@@H]32)CC1=O; 74.6

What does the data say about its growth? Entry: `COc1cc2c(c(OC)c1OC)-c1ccc([O-])c(=O)cc1[C@@H](NC(C)=O)CC2.COc1cc2c(c(OC)c1OC)-c1ccc([O-])c(=O)cc1[C@@H](NC(C)=O)CC2.[Cu+2]`
-44.9

Another: `C=CC[PH+](c1ccccc1)c1ccccc1.C=CC[PH+](c1ccccc1)c1ccccc1.[Cl][Pt][Cl]`
-19.4

Another compound: O=[N+]([O-])CC(c1ccccc1Cl)c1c(-c2ccccc2)[nH]c2ccccc12 (stereo not given)
6.94

====

Tested on: NCI-H522 lung
Experiment: NCI-60 one-dose screen, 48 h
Details: 10 µM unless noted
Compounds without any hit were thinned out: in the full panel of roughly 83,000, 20% have a hit. The source made the active and inactive calls. The calls were made as follows: active = growth percent below 10; inactive = the rest.
Respond with a class label; see active, inactive

# outcome recorded in this test, key = OCCNC(Cc1ccccc1)c1ccc2c(c1)OCO2 (stereo unspecified)
inactive

====

Test system: A549/ATCC NSCLC
Assay: NCI-60 one-dose screen, 48 h (100 = growth as untreated, 0 = no growth, -100 = all killed)
Conditions: 10 µM unless noted
This is part of a sample that, as a whole, favours compounds with a hit. Of some 83,000 tested, about 20% had one in any assay.
Field: label. Allowed values: 1 (yes) (growth < 40%) or 0 (no) (growth >= 40%).

// known answers, use as guide
1. Cc1ccc(Nc2nc3c(s2)C2=CC[C@@H]4[C@H](CC[C@]5(C)C(=O)CC[C@@H]45)[C@@]2(C)CC3)cc1; 0 (no)
2. CC1CN1CCCCN1CC1C (stereo not given); 0 (no)
3. CC(=O)OC1C(OC/C2=C/C3[C@@H](C(C)C)CC=C(C)[C@@H]3CC(OC(=O)/C=C/c3cn(C)cn3)[C@]3(C)C=C[C@@]2(O)O3)OCC(O)C1O (stereo not given in full); 1 (yes)
4. COc1ccc(N(CC(=O)NCCC[Te]c2ccccc2)C(=O)CNC(=O)OC(C)(C)C)cc1; 1 (yes)

Find out if reported growth for `CCCCN1CCCC[C@@H]1C(=O)N[C@H](C(=O)N(C)[C@H](CCc1nc(C(=O)N[C@@H](Cc2ccccc2)C[C@H](C)C(=O)OC)cs1)C(C)C)[C@@H](C)CC` is less than 40%
0 (no)

// same read-out, input: `COc1ccc(/C=C\c2cc(OC)c(OC)c(OC)c2)c(NS(=O)(=O)c2ccc(C)cc2)c1O`
1 (yes)

Similarly, O=C(Nc1ccc([As]=[As]c2ccc(NC(=O)c3ccccc3)cc2)cc1)c1ccccc1 (stereo not given) ?
1 (yes)

What would you report for C[C@]12CC[C@H]3[C@@H](CC4SC(N)=NC45C/C(=N/NC(N)=O)CC[C@]35C)[C@@H]1CCC2=O (stereo not given in full) ?
1 (yes)

What do we get for `Cc1cc(C)c(CBr)c(C)c1` ?
0 (no)

Subsequent entry: CC1(C)CN1P(=O)(N1CC1(C)C)N1CC1(C)C (stereo not given)
0 (no)

====

Test system: MALME-3M melanoma
Assay: NCI-60 one-dose screen, 48 h
Conditions: 10 µM unless noted
Procedure: Cells are grown in 96 well plates and exposed to the test compound for 48 hours. Compounds are tested at a single concentration, which is 10^-5 M for most compounds. The reported endpoint is percent growth (GI% or GIPRCNT), where numbers from 0 - 100% represent growth inhibition, and numbers from -100% - 0 represent cell death. For example, a value of 40 represents 60% growth inhibition. A value of 0 means no net growth occurred over the course of the experiment. […]
About 83,000 compounds went through this panel and 20% of them were active in at least one assay; those are over-represented in the sample as a whole. Active and inactive are the calls of the source. How the source made its calls: active means growth percent below 10; inactive means the rest.
Assign a class; possible classes are active, inactive

Record excerpt, results attached:
1) O=[N+]([O-])c1cnc[nH]1; inactive
2) N/C(=N/N=C/c1ccncc1)N[N+](=O)[O-]; inactive
3) Cc1ccc(C(Cc2ccccc2)NCCO)cc1 (stereo unspecified); inactive

Test call for this compound, please: CC12CCC3C(CCC4Cc5[nH]c6ccccc6c5CC43C)C1CCC2O (stereo unspecified)
inactive

Queued: `COc1ccc(/C(C)=C(\c2ccc(OCCN3CCOCC3)cc2)c2ccc(OC(=O)Cc3ccccc3)cc2)cc1`
inactive

Another compound to check: CCC(CC)CC1(C)CC2(C)CCOC2OO1 (stereo unspecified)
inactive

====

growth overview
Tested on: MCF7 breast
Test: NCI-60 one-dose screen, 48 h (100 = growth as untreated, 0 = no growth, -100 = all killed)
Details: 10 µM unless noted
This is part of a sample that, as a whole, favours compounds with a hit. Of some 83,000 tested, about 20% had one in any assay.
Answer with a number only, understood to be in %.

Use the examples below as a reference point.
1. CC[C@H](C)[C@H](NC(=O)c1cccn1C)C(=O)N(C)[C@H](C[C@@H](OC(C)=O)c1nc(C(=O)N[C@@H](Cc2ccccc2)C[C@H](C)C(=O)OC)cs1)C(C)C; 15
2. O=c1[nH]cc(N(CCCl)CCCl)c(=O)[nH]1; 53.1
3. COC(=O)[C@]12CCC(C)(C)C[C@H]1[C@H]1C(=O)C[C@@H]3[C@@]4(C)C[C@@]5(CC(C)(C)[C@@H]4CC[C@@]3(C)[C@]1(C)CC2)OO[C@@](C)(C(F)(F)F)O5; 82.2
4. O=C1C(N2CC2)=C(N2CC2)C(=O)C(N2CC2)=C1N1CC1; -46.1
5. CC(=O)O[C@H]1CC[C@H]2[C@@H]3CC=C4c5nc(-c6ccccc6)sc5CC[C@]4(C)[C@H]3CC[C@]12C; 67.7

Returns the measured growth for the input compound. Input: COc1cc(NC(C)CCCNC2CN3CCC2CC3)c2ncccc2c1 (stereo not drawn)
0.157

Okay, and O=C(O)C1C(C(=O)O)C2(Cl)C(Cl)=C(Cl)C1(Cl)C2(Cl)Cl.[Hg] (stereo not drawn) ?
52.2

Now give it for CCC(CC)CC1(C)CC2(C)CCOC2OO1 (stereo not drawn) too.
104

====

System: RXF 393 renal
Assay: NCI-60 one-dose screen, 48 h
Settings: 10 µM unless noted
The panel holds about 83,000 compounds, 20% with a hit somewhere; the sample as a whole holds those more often. Activity calls are given as the source filed them. Rule for the calls: active = growth percent below 10; inactive = the rest.
Answer with one of the outcomes active, inactive

1. COC(=O)[C@@]1(C)CC[C@]2(C)CC[C@]3(C)C4=CC=C5C(=CC(=O)C(O)=C5C)[C@]4(C)CC[C@@]3(C)[C@@H]2C1; active
2. COC(=O)[C@@]1(O)C[C@H]2O[C@]1(C)n1c3ccccc3c3c4c(c5c6ccccc6n2c5c31)C(=O)NC4; active
3. C=CC[n+]1ccc(-c2cc[n+](CC=C)cc2)cc1; inactive
4. Nc1cc2nc3ccccc3nc2cc1N; inactive
5. CN(C)CC(C(=O)Cc1ccccc1)c1ccccc1 (centres undefined); active
6. COc1cc(/C=C\c2cc(OC)c(OC)c(OC)c2)cc(NS(=O)(=O)c2cccc(Cl)c2)c1OC; inactive
7. C[C@@H]1CCC2[C@@H](C)[C@H](OC(=O)CCC(=O)NCCNC(=O)Cc3cc(=O)oc4cc(N(C)C)ccc34)O[C@@H]3O[C@]4(C)CC[C@@H]1C23OO4 (some centres undefined); inactive
8. COc1ccc2c(c1)c(-c1nc(-c3cn(C)c4ncccc34)cs1)cn2CCN1CCOCC1; inactive

For `CC[C@H](C)[C@H](NC(=O)[C@H]1CCCCN1C)C(=O)N(C)[C@H](C[C@@H](O)c1nc(C(=O)N[C@@H](Cc2ccccc2)C[C@H](C)C(=O)O)cs1)C(C)C` , which call appears in the assay record?
inactive

Now consider `C=CCn1cc(C=C2C(=O)N(C)C(=O)N(C)C2=O)c2ccccc21` .
inactive

Try this compound next: `COC(=O)[C@@H](C)C[C@H](Cc1ccccc1)NC(=O)c1csc([C@@H](C[C@H](C(C)C)N(C)C(=O)[C@@H](NC(=O)CN(C)C)C2CC2)OC(C)=O)n1`
inactive

Also CCCCCCCCCCCCCCCCCC1OC[C@@H](COC(=O)O[C@@H](C(=O)O[C@H]2C[C@@]3(O)[C@@H](OC(=O)c4ccccc4)[C@@H]4[C@]5(OC(C)=O)CO[C@@H]5C[C@H](O)[C@@]4(C)C(=O)[C@H](OC(C)=O)C(=C2C)C3(C)C)[C@@H](NC(=O)c2ccccc2)c2ccccc2)O1 (some centres undefined) ?
inactive

Item: `C/C1=C/C(=O)O[C@@H]2C[C@@H](CC[C@H](C)/C=C\C=C\CC1)O[C@@](O)([C@@H]1CSC(=O)N1CO)C2`
active

Let us now turn to `CC1(C)N=C(N)N=C(N)N1c1ccc(OCCCNC(=O)Nc2ccc(S(=O)(=O)F)cc2)c(Cl)c1`
inactive
